- Tested on: Polygonum convolvulus
- experimental.details: Pre-emergence herbicidal activity against POLCO
- Assay type: in vivo
- condition.details: Fallopia convolvulus, 504 h, dosage 80 g/ha, scored visually after about 3 weeks vs untreated controls
Reported pest or weed control at 80 g/ha values for the following compounds.
Give the value in % but do not write % after it.

Reference set, count: 2
compound | readout.number
C=C[C@]1(C(=O)N[C@@H]2CO[C@H](C(=O)NOC)C2)CC(c2cc(F)cc(F)c2)=NO1 (mixture of isomers) [Example I-11] | 100
C=C[C@]1(C(=O)N[C@@H]2CO[C@H](C(=O)NS(C)(=O)=O)C2)CC(c2cc(F)cc(F)c2)=NO1 (mixture of isomers) [Example I-16] | 100

Specify pest or weed control at 80 g/ha for C=C[C@]1(C(=O)N[C@@H]2CO[C@H](C(=O)NOC(C)C)C2)CC(c2cc(F)cc(F)c2)=NO1 (mixture of isomers) [Example I-13] and stop.
100
